Molecular target: Human 5-HT1A Receptor (Homo sapiens, UniProt P08908)
Test: cAMP RIA in human 5-HT1A receptor cell line
Conditions: superscript a; forskolin stimulated cAMP, CHO cells; read-out: c-AMP, (EC50)^a
Protocol: Stably transfected CHO cells were grown in DMEM containing 10% heat inactivated FBS and non-essential amino acids. The cells were plated at a density of 10^6 cells per well in a 96 well plate and incubated for 2 days in a CO2 incubator. […] Compounds shown to have no agonist activities were further analyzed for ability to reverse agonist activity. […] In the initial screen, percent inhibition of forskolin stimulated cAMP was measured. […]
pEC50: −log10 of the molar value. Structures can show the parent of a compound that is named as a salt.
Reported pEC50 by item:

{"columns": ["compound", "pEC50"],
 "data": [
  ["Cc1ccc2c3c(ccc2n1)OC[C@H](CN(C)C[C@@H]1CCc2c(c4cc(F)ccc4n2C)C1)O3 [Example 69, monohydrochloride monohydrate]", 6.26],
  ["CCCN(C[C@@H]1CCc2[nH]c3ccc(F)cc3c2C1)C[C@H]1COc2ccc3nc(C)ccc3c2O1 [Example 54, dihydrochloride dihydrate]", 6.75],
  ["Cc1ccc2c3c(ccc2n1)OC[C@H](CNCC[C@H]1CCc2[nH]c4ccc(F)cc4c2C1)O3 (single isomer, unassigned) [Example 42, dihydrochloride]", 7.44]
]}

###

Form field: pEC50 (one value per entry).
Target: cloned human 5-HT1A receptors (Homo sapiens, UniProt P08908)
Sequence (P08908 1-422): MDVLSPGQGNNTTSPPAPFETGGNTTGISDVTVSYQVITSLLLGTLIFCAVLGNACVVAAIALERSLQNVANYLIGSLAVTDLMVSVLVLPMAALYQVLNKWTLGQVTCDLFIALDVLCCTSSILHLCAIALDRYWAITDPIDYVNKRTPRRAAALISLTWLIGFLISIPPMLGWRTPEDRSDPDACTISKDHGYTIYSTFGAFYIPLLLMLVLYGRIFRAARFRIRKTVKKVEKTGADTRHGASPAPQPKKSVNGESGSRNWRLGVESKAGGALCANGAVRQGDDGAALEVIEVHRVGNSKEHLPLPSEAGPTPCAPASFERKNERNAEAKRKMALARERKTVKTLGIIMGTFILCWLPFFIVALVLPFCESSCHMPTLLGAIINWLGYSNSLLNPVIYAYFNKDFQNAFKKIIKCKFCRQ
Experiment: 35S-GTPγS binding assay
Conditions: superscript a; potency of stimulatory effect
pEC50: −log10 of the molar value. Structures can show the parent of a compound that is named as a salt.
assay-readout: pEC50

{"columns": ["compound", "target-of-assay", "assay-readout", "value"],
 "data": [
  ["Cc1ccc2c3c(ccc2n1)OC[C@H](CNCCC1CCc2[nH]c4ccc(F)cc4c2C1)O3 (mixture of isomers) [Example 40, dihydrochloride]", "cloned human 5-HT1A receptors (Homo sapiens, UniProt P08908)", "pEC50", 8.15],
  ["Cc1ccc2c3c(ccc2n1)OC[C@H](CNCC[C@H]1CCc2[nH]c4ccc(F)cc4c2C1)O3 (single isomer, unassigned) [Example 42, dihydrochloride]", "cloned human 5-HT1A receptors (Homo sapiens, UniProt P08908)", "pEC50", 7.20],
  ["Cc1ccc2c3c(ccc2n1)OC[C@H](CNCC[C@@H]1CCc2[nH]c4ccc(F)cc4c2C1)O3 (single isomer, unassigned) [Example 41, dihydrochloride]", "cloned human 5-HT1A receptors (Homo sapiens, UniProt P08908)", "pEC50", 7.61]
]}

###

Target: h-5-HT-T (Homo sapiens, UniProt P31645)
Sequence (P31645 whole entry): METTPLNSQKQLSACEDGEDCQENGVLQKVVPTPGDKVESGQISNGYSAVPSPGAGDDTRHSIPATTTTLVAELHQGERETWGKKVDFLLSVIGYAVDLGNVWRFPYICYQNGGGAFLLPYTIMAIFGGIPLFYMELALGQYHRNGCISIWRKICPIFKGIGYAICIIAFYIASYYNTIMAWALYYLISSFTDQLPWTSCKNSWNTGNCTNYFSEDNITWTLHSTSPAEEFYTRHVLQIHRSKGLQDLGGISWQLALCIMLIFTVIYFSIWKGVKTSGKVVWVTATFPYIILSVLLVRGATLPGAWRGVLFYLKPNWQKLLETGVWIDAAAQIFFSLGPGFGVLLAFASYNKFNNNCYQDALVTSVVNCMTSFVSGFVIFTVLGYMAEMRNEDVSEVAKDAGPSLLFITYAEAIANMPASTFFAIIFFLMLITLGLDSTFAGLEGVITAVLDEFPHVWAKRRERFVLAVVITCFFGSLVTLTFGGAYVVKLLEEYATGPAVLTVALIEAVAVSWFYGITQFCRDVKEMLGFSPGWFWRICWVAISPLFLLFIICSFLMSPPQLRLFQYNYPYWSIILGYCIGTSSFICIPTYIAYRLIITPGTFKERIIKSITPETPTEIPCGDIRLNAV
Where a name gives a salt, the structure may show the parent alone.
API: label(entry) gives y if the entry's IC50 is strictly smaller than 0.5 µM; on equality or larger values it gives n.

{"columns": ["molecule", "category"],
 "data": [
  ["Cc1ccc2c3c(ccc2n1)OC[C@H](CN(C[C@@H]1CCc2[nH]c4ccc(F)cc4c2C1)C(C)C)O3 [Example 57, monohydrochloride monohydrate]", "n"],
  ["Cc1ccc2c3c(ccc2n1)OC[C@H](CN[C@H]1CCc2c([nH]c4ccccc24)C1)O3 (single isomer, unassigned) [Example 45, dihydrochloride]", "y"],
  ["Cc1ccc2c3c(ccc2n1)OC[C@H](CNCC1CCc2c(sc4cc(F)ccc24)C1)O3 (single isomer, unassigned) [39 diastereomer 2]", "n"],
  ["Cc1ccc2c3c(ccc2n1)OC[C@H](CN(C[C@H]1CCc2[nH]c4ccc(F)cc4c2C1)C1CCCC1)O3 [Example 63, monohydrochloride monohydrate]", "y"],
  ["Cc1ccc2c3c(ccc2n1)OC[C@H](CNCC1CCc2sc4ccc(F)cc4c2C1)O3 (single isomer, unassigned) [31 diastereomer 2]", "n"],
  ["Cc1ccc2c3c(ccc2n1)OC[C@H](CNCC1CCc2sc4ccc(F)cc4c2C1)O3 (single isomer, unassigned) [31 diastereomer 1]", "y"]
]}

###

Target sequence: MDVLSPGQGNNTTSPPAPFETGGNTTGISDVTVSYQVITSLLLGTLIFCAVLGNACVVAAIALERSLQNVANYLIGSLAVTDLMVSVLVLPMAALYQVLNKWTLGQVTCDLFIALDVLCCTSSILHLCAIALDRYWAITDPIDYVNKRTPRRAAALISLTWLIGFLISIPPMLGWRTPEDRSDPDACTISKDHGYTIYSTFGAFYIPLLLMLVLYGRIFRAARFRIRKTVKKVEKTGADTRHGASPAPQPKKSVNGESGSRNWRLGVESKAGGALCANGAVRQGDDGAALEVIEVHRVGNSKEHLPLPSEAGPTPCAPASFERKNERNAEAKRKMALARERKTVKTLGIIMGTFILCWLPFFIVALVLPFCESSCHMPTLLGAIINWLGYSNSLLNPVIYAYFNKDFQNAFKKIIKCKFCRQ
Where a name gives a salt, the structure may show the parent alone.
The compounds listed here are annotated with their Ki.
assay-readout: Ki

{"columns": ["compound", "value"],
 "data": [
  ["Cc1ccc2c3c(ccc2n1)OC[C@H](CN[C@@H]1CCc2c([nH]c4ccc(F)cc24)C1)O3 (single isomer, unassigned) [Example 47, dihydrochloride]", "186 nM"],
  ["Cc1ccc2c3c(ccc2n1)OC[C@H](CNCCC1CCc2[nH]c4ccc(F)cc4c2C1)O3 (mixture of isomers) [Example 40, dihydrochloride]", "680 nM"],
  ["Cc1ccc2c3c(ccc2n1)OC[C@H](CN(CC1CC1)C[C@@H]1CCc2[nH]c4ccc(F)cc4c2C1)O3 [Example 55, dihydrochloride dihydrate]", "850 nM"],
  ["Cc1ccc2c3c(ccc2n1)OC[C@H](CNC[C@@H]1CCc2[nH]c4ccc(C#N)cc4c2C1)O3.Cl.Cl [Example 15, dihydrochloride]", "15 nM"],
  ["Cc1ccc2c3c(ccc2n1)OC[C@H](CN[C@H]1CCc2c([nH]c4ccc(F)cc24)C1)O3 (single isomer, unassigned) [Example 48, dihydrochloride]", "7.4 nM"],
  ["Cc1ccc2c3c(ccc2n1)OC[C@H](CNCC1CCc2c(sc4cc(F)ccc24)C1)O3 (single isomer, unassigned) [39 diastereomer 1]", "7.09 nM"],
  ["Cc1ccc2c3c(ccc2n1)OC[C@H](CN(C[C@@H]1CCc2[nH]c4ccc(F)cc4c2C1)C1CCC1)O3 [Example 56, dihydrochloride dihydrate]", "1730 nM"],
  ["Cc1ccc2c3c(ccc2n1)OC[C@H](CN[C@@H]1CCc2c([nH]c4ccccc24)C1)O3 (single isomer, unassigned) [Example 44, dihydrochloride]", "620 nM"],
  ["Cc1ccc2c3c(ccc2n1)OC[C@H](CNCC1CCc2c(sc4cc(F)ccc24)C1)O3 (single isomer, unassigned) [39 diastereomer 2]", "2.16 nM"],
  ["Cc1ccc2c3c(ccc2n1)OC[C@H](CNCC1CCc2sc4ccccc4c2C1)O3 (single isomer, unassigned) [32 diastereomers 1]", "8.07 nM"],
  ["CCC(C)N(C[C@@H]1CCc2[nH]c3ccc(F)cc3c2C1)C[C@H]1COc2ccc3nc(C)ccc3c2O1 (stereo partly drawn) [Example 58, monohydrochloride monohydrate]", "1190 nM"],
  ["Cc1ccc2c3c(ccc2n1)OC[C@H](CNC[C@H]1CCc2[nH]c4c(F)cc(F)cc4c2C1)O3.Cl.Cl [Example 10, dihydrochloride]", "4.95 nM"]
]}

###

Biological target: serotonin transporter (Rattus norvegicus)
Construct: frontal cortical membranes prepared from male S.D. rats; from tissue; host or cells: rat frontal cortex membranes (male Sprague-Dawley)
Sequence (P31652 whole entry): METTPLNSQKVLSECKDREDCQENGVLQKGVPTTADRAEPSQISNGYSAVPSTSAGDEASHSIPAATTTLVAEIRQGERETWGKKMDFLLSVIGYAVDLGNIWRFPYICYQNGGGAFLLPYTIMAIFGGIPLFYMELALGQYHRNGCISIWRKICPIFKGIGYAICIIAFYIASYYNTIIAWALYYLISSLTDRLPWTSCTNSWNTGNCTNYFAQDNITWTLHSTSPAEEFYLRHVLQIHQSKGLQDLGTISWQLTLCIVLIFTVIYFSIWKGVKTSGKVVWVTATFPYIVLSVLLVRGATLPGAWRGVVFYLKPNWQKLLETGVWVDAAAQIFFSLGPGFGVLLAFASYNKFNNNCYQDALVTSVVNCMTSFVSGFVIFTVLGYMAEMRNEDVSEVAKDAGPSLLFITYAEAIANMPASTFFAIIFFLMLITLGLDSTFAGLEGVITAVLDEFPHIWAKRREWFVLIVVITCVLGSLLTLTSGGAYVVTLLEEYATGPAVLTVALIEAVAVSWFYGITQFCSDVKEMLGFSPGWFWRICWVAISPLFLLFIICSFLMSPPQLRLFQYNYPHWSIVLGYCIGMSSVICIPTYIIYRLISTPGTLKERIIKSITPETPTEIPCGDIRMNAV
Experiment: 3H-paroxetine binding to the serotonin transporter, rat frontal cortical membranes
Details: values printed in parentheses, 3H-paroxetine 0.1 nM, read-out: rb-5-HH-T, (IC50)
pIC50: −log10 of the molar value.
If the reported pIC50 equals or exceeds 8, assign true. If not, assign false.

{"columns": ["molecule", "category"],
 "data": [
  ["Cc1ccc2c3c(ccc2n1)OC[C@H](CNCC1CCc2[nH]c4cccc(F)c4c2C1)O3.Cl.Cl (stereo partly shown) [Example 11, dihydrochloride]", "false"],
  ["Cc1ccc2c3c(ccc2n1)OC[C@H](CNCC1CCc2c([nH]c4ccc(F)cc24)C1)O3 (stereo partly shown)", "false"],
  ["Cc1ccc2c3c(ccc2n1)OC[C@H](CNC[C@@H]1CCc2[nH]c4ccc(C#N)cc4c2C1)O3.Cl.Cl [Example 15, dihydrochloride]", "true"],
  ["Cc1ccc2c3c(ccc2n1)OC[C@H](CNC[C@@H]1CCc2[nH]c4c(F)cc(F)cc4c2C1)O3.Cl.Cl [Example 9, dihydrochloride]", "false"],
  ["Cc1ccc2c3c(ccc2n1)OC[C@H](CNCC1CCc2[nH]c4cc(F)ccc4c2C1)O3 (stereo partly shown)", "false"],
  ["Cc1ccc2c3c(ccc2n1)OC[C@H](CNC[C@H]1CCc2[nH]c4ccc(C#N)cc4c2C1)O3.Cl.Cl [Example 14, dihydrochloride]", "true"],
  ["Cc1ccc2c3c(ccc2n1)OC[C@H](CNCC1CCc2[nH]c4ccc(F)cc4c2C1)O3 (mixture of isomers)", "true"]
]}
